Entries and their measured kon follow.
biological target: T1, human CD3 E&D complex protein (Sino Biological Inc., CT026H0323H) (human, UniProt P07766 23-126; P04234 22-105); test: BLI, antibody on sensor
T1 construct: bought heterodimer; also called human CD3 protein (CT026H0323H)
T1 sequence (P07766 23-126, chain 1 of 2): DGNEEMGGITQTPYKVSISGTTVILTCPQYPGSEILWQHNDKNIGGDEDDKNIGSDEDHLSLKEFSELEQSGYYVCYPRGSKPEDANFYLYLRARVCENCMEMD
T1 sequence (P04234 22-105, chain 2 of 2): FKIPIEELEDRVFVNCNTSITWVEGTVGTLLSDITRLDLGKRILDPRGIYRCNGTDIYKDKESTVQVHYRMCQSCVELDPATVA
Give the value in M⁻¹ s⁻¹ but do not write M⁻¹ s⁻¹ after it.

// below: answered binders
{"binder": "hzsp34.23 (antibody, human IgG1, lambda, L234A L235A, V domains shown, IgG1 L234A L235A, lambda) VH: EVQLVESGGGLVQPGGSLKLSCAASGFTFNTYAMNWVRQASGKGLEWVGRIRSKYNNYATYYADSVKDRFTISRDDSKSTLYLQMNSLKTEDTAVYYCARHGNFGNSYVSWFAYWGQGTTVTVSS VL: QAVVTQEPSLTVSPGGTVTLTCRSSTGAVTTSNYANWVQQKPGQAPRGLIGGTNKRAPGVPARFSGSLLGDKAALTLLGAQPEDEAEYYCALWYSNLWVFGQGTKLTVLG", "outcome_measure": "kon", "measured_value": "3.57e+06"}
{"binder": "hzsp34.40 (antibody, human IgG1, kappa, L234A L235A, V domains shown, IgG1 L234A L235A, kappa) VH: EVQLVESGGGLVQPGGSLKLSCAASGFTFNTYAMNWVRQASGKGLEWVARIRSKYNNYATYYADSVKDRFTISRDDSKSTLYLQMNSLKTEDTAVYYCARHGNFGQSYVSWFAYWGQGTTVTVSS VL: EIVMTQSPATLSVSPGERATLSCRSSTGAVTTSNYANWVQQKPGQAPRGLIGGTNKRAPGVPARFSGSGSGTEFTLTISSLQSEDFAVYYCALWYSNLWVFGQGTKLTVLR", "outcome_measure": "kon", "measured_value": 307000}
{"binder": "hzsp34.12 (antibody, human IgG1, lambda, L234A L235A, V domains shown, IgG1 L234A L235A, lambda) VH: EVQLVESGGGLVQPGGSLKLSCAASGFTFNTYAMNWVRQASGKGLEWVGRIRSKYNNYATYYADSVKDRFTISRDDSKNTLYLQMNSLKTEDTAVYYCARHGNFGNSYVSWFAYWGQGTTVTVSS VL: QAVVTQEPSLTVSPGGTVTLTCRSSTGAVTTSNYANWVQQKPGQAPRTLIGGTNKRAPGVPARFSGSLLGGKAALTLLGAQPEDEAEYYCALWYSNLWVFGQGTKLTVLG", "outcome_measure": "kon", "measured_value": 640000}

query: Give a short answer stating reported kon for hzsp34.38 (antibody, human IgG1, kappa, L234A L235A, V domains shown, IgG1 L234A L235A, kappa) VH: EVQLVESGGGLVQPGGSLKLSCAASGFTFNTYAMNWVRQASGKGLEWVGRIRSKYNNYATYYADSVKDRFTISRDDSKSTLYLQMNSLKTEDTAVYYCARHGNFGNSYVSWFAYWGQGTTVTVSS VL: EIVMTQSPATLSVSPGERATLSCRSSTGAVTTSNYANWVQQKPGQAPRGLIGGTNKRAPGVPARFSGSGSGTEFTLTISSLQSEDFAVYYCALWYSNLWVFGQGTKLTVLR .
result: 397000

query: Using known records, supply kon for hzsp34.18 (antibody, human IgG1, lambda, L234A L235A, V domains shown, IgG1 L234A L235A, lambda) VH: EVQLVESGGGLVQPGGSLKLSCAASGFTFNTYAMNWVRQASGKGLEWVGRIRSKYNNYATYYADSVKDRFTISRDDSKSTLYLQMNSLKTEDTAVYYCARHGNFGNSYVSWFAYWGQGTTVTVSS VL: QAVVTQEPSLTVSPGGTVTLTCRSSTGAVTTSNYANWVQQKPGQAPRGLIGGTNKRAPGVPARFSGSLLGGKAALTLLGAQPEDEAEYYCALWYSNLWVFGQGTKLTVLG
result: 3.31e+06

query: Provide one value: measured kon of hzsp34.43 (antibody, human IgG1, kappa, L234A L235A, V domains shown, IgG1 L234A L235A, kappa) VH: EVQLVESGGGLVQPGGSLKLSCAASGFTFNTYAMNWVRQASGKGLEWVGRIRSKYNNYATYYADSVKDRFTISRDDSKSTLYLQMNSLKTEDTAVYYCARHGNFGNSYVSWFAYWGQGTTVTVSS VL: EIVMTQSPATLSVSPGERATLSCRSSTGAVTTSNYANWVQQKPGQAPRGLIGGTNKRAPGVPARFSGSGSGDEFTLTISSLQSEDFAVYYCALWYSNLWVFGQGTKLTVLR
result: 359000

Source: patent US20230374132A1
